Test system: TRPC4 beta (transient receptor potential cation channel C4), mouse
Experiment: TRPC4 cation channel opening, retest – cell-based, Fluo4 calcium, HEK293 TRPC4beta/mu-opioid, duplicates, 10 µM, confirmation (AID 2426)
Settings: Fluo4 calcium fluorescence, at 10 µM
Active and inactive are the calls of the source.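 Rule for the calls: active = fluorescence ratio normalized to control raised more than 50% in primary screen plus both repeat runs; inactive = the rest.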
Hi there, use one of these labels in your reply, thanks! active, inactive

# example entries with known answers
>>> df
                                   compound     group
0  Cc1c(CCOC(=O)c2ccc([N+](=O)[O-])cc2)sc[n+]1CC(=O)c1ccccc1  inactive
1  CCOc1ccccc1N(C(=O)c1snc(C(N)=O)c1N)C(C(=O)NCc1ccccc1)c1ccc(O)cc1 (centres undefined)  inactive
2  CCOC(=O)C1=C(C)NC(=O)CC1c1cc2c(cc1[N+](=O)[O-])OCO2 (centres undefined)  inactive
3  COc1cc(OC)c2c(-c3ccccc3)cc(=O)oc2c1C(CCN1CCCCC1)c1ccc(N(C)C)cc1 (centres undefined)    active
4  CSCC(C)N1CCC(CO)(CCCc2ccccc2)CC1 (centres undefined)  inactive
5  OCC1(Cc2ccccc2)CCN(Cc2ccc(C(F)(F)F)cc2)CC1  inactive
6    CCCCc1ccc(NC(=O)CSc2nnc(C)c(=O)n2N)cc1  inactive
7     Cc1ccccc1C(=O)NNC(=S)NC(=O)COc1ccccc1    active
8  CCc1cc(C(c2cccc(OC)c2)N2CCOCC2)c(NC(=O)c2ccccc2)s1 (centres undefined)  inactive
9  COc1ccc(S(=O)(=O)N2CCCCCC2)cc1C(=O)N(C)Cc1ccc(Cl)cc1Cl  inactive

**Query** Called result for CC(=O)N1N=C(c2c(-c3ccccc3)c3cc(C)ccc3[nH]c2=O)CC1c1ccco1 (centres undefined)
**Result** inactive

**Query** What do you get for CC1(c2ccccc2)CC(C)(C)N(C(=O)C2CCCO2)c2ccccc21 (centres undefined) ?
**Result** inactive

**Query** Next record, please: "CN(C)CCCNc1nc(N)c([N+](=O)[O-])c(NCc2ccccc2)n1"
**Result** inactive

**Query** Check CCn1cc(CN2CCCC(CO)(Cc3cccc(Cl)c3)C2)cn1 (centres undefined) too.
**Result** inactive

**Query** And the next one, O=C(c1ccc2c(c1)OCO2)C1CCCN(Cc2ccccc2OC(F)F)C1 (centres undefined) ?
**Result** inactive

**Query** Same read-out for CCCCC(CC)C(=O)Nc1ncc([N+](=O)[O-])s1 (centres undefined) ?
**Result** inactive

**Query** Entry "Cc1ccc2nc(N(CCCN(C)C)C(=O)c3ccc(S(=O)(=O)N4CCc5ccccc5C4)cc3)sc2c1" please
**Result** active

**Query** Request: "Cc1ccc(Cl)cc1N1CCN(C(=O)c2cccc3c(=O)c(C)c(-c4ccccc4)oc23)CC1"
**Result** inactive

---

Tested on: TRPC4 (transient receptor potential cation channel C4 beta), mouse
Test: potentiation of DAMGO EC20 TRPC4 response – cell-based, second round, Fluo-4, HEK293 TRPC4beta/mu-opioid, 1 µM, confirmation (AID 2554)
Details: DAMGO EC20, Fluo-4 calcium flux, at 1 µM
Calls of active or inactive are those of the source.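 Rule for the calls: active = primary screen hit whose fluorescence ratio, in both repeats, exceeds the weak agonist control mean by 3 SD; inactive = the rest.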
Pick from active, inactive when you respond.

Consider the worked cases shown below.
                                   compound     group
0  CC1CC(C)CN(CCCNS(=O)(=O)c2cc(Br)cc3c2N(C(=O)C2CC2)CC3)C1 (stereo not drawn)  inactive
1  CCC1(C(=O)c2ccccc2)C(c2ccc([N+](=O)[O-])cc2)C1(C(=O)OC)C(=O)OC (stereo not drawn)  inactive
2   CCCc1nc2oc3c(NCCCN(C)C)ncnc3c2c2c1CCCC2  inactive
3  CCOc1cc(CNCCCN2CCOCC2)cc(Br)c1OCC(=O)Nc1cccc(C(F)(F)F)c1  inactive

**Query** Kindly provide the recorded test outcome for the following compound: C=CCc1ccccc1OCC(O)CN1CCN(c2ccccc2OC)CC1 (stereo not drawn)
**Result** inactive

**Query** Input "CSCCNCc1cn(-c2ccc(F)cc2F)nc1-c1ccccc1C"
**Result** inactive

**Query** "COc1ccc(Cc2noc(CN(C)CC3CCN(Cc4ccccc4)CC3)n2)cc1OC" , same question.
**Result** inactive

**Query** Try this compound too: "COc1ccc(-n2ncc3c(N4CCc5ccccc54)ncnc32)cc1"
**Result** inactive

Every entry's value here was drawn from PubChem BioAssay.
